The reported measurements were obtained from patent US20250333523A1.

Molecular target: T1, His/Avi-CynoIL18BP (recombinant cynomolgus IL-18BP with His and Avi tags) (cynomolgus monkey)
T1 chain: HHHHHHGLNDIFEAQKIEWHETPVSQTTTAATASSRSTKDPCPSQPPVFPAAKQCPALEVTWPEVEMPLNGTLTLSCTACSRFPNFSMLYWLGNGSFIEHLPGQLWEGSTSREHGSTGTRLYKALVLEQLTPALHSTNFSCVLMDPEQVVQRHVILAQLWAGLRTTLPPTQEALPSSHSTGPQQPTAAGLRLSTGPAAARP
Assay: cell-based or functional assay

- binder: "anti-IL18BP antibody BP-02 (antibody, human IgG1, V domains shown) VH: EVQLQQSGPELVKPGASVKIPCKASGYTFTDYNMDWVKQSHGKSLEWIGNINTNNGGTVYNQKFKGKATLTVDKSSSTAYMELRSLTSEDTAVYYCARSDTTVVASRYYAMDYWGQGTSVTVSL VL: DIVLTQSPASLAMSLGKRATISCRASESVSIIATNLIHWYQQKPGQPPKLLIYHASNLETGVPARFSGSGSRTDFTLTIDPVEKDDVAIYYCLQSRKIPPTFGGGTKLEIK"
  units_text: "%"
  % of Max Gamma, human NK cells: 10.4
